# tgt: T1, human CTLA-4-Fc (Chimerigen) (human, UniProt P16410 36-161, limits assumed)
# T1 construct: Bought fusion protein; also called hCTLA4-Fc; not shown: It was captured by an anti-human IgG-Fc antibody
# T1 sequence (looked up): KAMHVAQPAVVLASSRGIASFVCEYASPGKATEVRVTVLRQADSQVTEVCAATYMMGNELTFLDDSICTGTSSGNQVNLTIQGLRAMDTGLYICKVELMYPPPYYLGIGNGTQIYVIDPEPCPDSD
# methodDescription: SPR, Biacore T100, 25 C; CTLA4-Fc captured on anti-human IgG-Fc, mutein as analyte; 1:1 Langmuir fit
parameterMeasured: kon (M⁻¹ s⁻¹)
Give just the number in M⁻¹ s⁻¹; leave the unit off.

- binder: "hNGALM2 (designed binder) QDSTSDLIPAPPLSKVPLQQNFQDNQFHGKWYVVGLAGNRLLRDDQHPMDMYATIYELKGDKSYNVTSVISSHKKCLYPIATFVPGSQPGEFTLGNIKSYGDKWSYLVRVVSTDYNQYAVVFFKHADTNYESFSITIYGRTKELASELKENFIRFSKSLGLPENHIVFPVPIDQCIDGSAWSHPQFEK"
  kon [M⁻¹ s⁻¹]: 565000
- binder: "hNGALM7 (designed binder) QDSTSDLIPAPPLSKVPLQQNFQDNQFHGKWYVVGLAGNRILRLDQHPMPMYATIYELKGDKSYNVTSVISSHKKCLYPIATFVPGSQPGEFTLGNIRSYGDKTSYLVRVVSTDYNQYAVVFFKHADTNYESFSITIYGRTKELASELKENFIRFSKSLGLPENHIVFPVPIDQCIDGSAWSHPQFEK"
  kon [M⁻¹ s⁻¹]: 784000

Consider the additional binder presented here.
Which kon value is on record for hNGALM3 (designed binder) QDSTSDLIPAPPLSKVPLQQNFQDNQFHGKWYVVGLAGNRILRQDQHPMLMYATIYELKGDKSYNVTSVISSHKKCLYPIATFVPGSQPGEFTLGNIKSYGDKVSYLVRVVSTDYNQYAVVFFKHADTNYESFSITIYGRTKELASELKENFIRFSKSLGLPENHIVFPVPIDQCIDGSAWSHPQFEK ? 422000
